Measured % Blocking GalNac Binding values are reported for all entries that follow.
Target: T1, human ASGR1 (asialoglycoprotein receptor 1) on cells (human, UniProt P07306 1-291)
T1 construct: whole, on cells; also called HepG2 cells; CHO-S cells transfected with human ASGR1 full length DNA
T1 sequence (looked up): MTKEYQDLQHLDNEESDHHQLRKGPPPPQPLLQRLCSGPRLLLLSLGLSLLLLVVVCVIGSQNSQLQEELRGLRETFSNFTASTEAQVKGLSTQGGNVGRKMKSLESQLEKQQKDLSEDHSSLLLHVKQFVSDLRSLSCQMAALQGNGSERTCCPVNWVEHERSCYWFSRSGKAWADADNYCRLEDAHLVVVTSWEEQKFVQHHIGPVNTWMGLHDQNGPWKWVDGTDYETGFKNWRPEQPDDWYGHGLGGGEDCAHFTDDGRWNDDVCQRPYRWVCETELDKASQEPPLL
Assay: competition flow cytometry on CHO-S cells with human ASGR1; 200 nM F(ab')2 against 33 nM GalNac-hFc
Please respond with the number in % and leave the unit unwritten.

1) F(ab')2 fragment of hzH8K-1 (F(ab')2) VH: QVQLQESGPGLVKPSQTLSLTCTVSGGSISSDYAWNWIRQHPGKGLEWIGYRSYRGSTSYNPSLKSRVTISVDTSKNQFSLKLSSVTAADTAVYYCARRGYYGSSSHWYFDVWGQGTTVTVSS VL: DIQMTQSPSSLSASVGDRVTITCRASENIYSYLAWYQQKPGKAPKLLIYNAKTLAEGVPSRFSGSGSGTDFTLTISSLQPEDFATYYCQHHYGTPLTFGGGTKVEIK
81.3

query: What value of % Blocking GalNac Binding has been recorded for this entry: F(ab')2 fragment of J4F (F(ab')2) VH: QVQLQQSGDDLVKPGASVKLSCKASGYTFTSYWINWIKQRPGQGLEWIGRIVPGSGSTYYNEMFKDKATLTVDTSSSTAYIQLSSLSSEDSAVYFCARKPNFDVWGAGTTVTVSS VL: DIVMTQSQKFMSTSVGDRVSVTCKASQNVGTNVAWYQQKPGQSPKAVIYSASYRFSGVPDRLTGSGSGTDFTLTITNVQSEDLAEYFCQQYNSYPLTFGAGTKLELK
result: -32.1
